Tested on: JAK2(JH1domain-catalytic)
condition.info: concentration: 1 μM,replicates: in singlicate; n = 1;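 further: KINOMEscan kinase panel screen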
property.label: %Inh (%)
Give just the number in %; leave the unit off.

**Query** Any idea what its %Inh is? The molecule is COC(=O)c1cccc(NC(=O)NC2CCN(c3ccnc(Nc4cc(OC)c(OC)c(OC)c4)n3)C2)c1 (centres unmarked)
**Result** 82

**Query** Field request: %Inh | item: `FC(F)(F)c1cc(Br)cc(Nc2nccc(-c3cnn4ncccc34)n2)c1`
**Result** 0

**Query** Consider the molecule `Cl.Nc1n[nH]c2cc(-c3ccccn3)ccc12` and give its measured %Inh.
**Result** 31

**Query** # query: %Inh of entry Cc1nnc(-c2ccc3occ(-c4ccc(S(C)=O)cc4)c3n2)o1 (centres unmarked)
**Result** 0

**Query** Name the recorded %Inh for `CN1CCN(CCNc2nc3cc(Oc4ccc(NC(=O)Nc5cc(C(F)(F)F)ccc5F)cc4)ccc3[nH]2)CC1.Cl.Cl` .
**Result** 5

###

Test system: MYO3A
condition.info: concentration: 1 μM,replicates: in singlicate; n = 1
property.label: %Inh (%)
Give the value in % but do not write % after it.

**Query** Dear colleague, I am looking for the recorded %Inh of the following compound: `Cn1ccc2ncnc(Oc3ccc(NC(=O)Nc4cccc(C(F)(F)F)c4)c(Cl)c3)c21`
**Result** 0

**Query** Reported %Inh for COc1cc2ncn(-c3cc(OCC4CCCCC4)c(C(N)=O)s3)c2cc1OC [GSK204559] : what is it?
**Result** 0

**Query** What measured %Inh goes with `Cn1cc(-c2cccc3c(N)c(C(N)=O)nnc23)cn1` ?
**Result** 15

**Query** // query %Inh value for entry CNC(=O)c1ccccc1Nc1nc(Nc2cccc(CS(C)(=O)=O)c2)ncc1C.O=CO [GSK1520489]
**Result** 28

**Query** Requested read-out: %Inh. Entry: CS(=O)c1ccc(-c2coc3ccc(-c4n[nH]c(=O)o4)cc23)cc1 (stereo not drawn)
**Result** 0

**Query** Fill in the blank: the reported %Inh of C[C@@H](Oc1cc(-n2cnc3cc(-c4cnn(C)c4)ccc32)sc1C(N)=O)c1ccccc1Cl [GSK580432] is ____.
**Result** 17

**Query** Entry O=c1[nH]cc(-c2ccc(O)cc2)c2sc(-c3ccncc3)cc12 [GSK1033723] has what %Inh?
**Result** 0

**Query** What value of %Inh has been recorded for this entry: `O=C(Nc1cccc(C(F)(F)F)c1)c1cccc(Oc2ccc3nccn3n2)c1`
**Result** 0

**Query** Item under review: COc1cc2c(Nc3ccc(NC(=O)c4ccccc4)cc3)ncnc2cc1OCCCN1CCOCC1 [GSK301329] . Reported %Inh?
**Result** 0

**Query** // returns reported %Inh for input CC(C)S(=O)(=O)N1CCN(Cc2ccc3c(c2)nc(NC(=O)c2ccsc2)n3C[C@H](O)c2ccccc2)CC1 [GW635815]
**Result** 8

**Query** Given the entry O=C(Nc1n[nH]c2cc(-c3ccco3)ccc12)C1CC1 [SB-737447] , report its measured %Inh.
**Result** 14

**Query** Would you kindly share the measured %Inh for Cl.Cl.NC[C@H](CC1CCCCC1)NC(=O)c1ccc(-c2ccnc3[nH]ccc23)s1 [GSK1581428] ?
**Result** 0
